Target: γ-secretase (Homo sapiens, UniProt P49768)
Construct: uses a HEK293 membrane fraction as a source of γ-secretase; endogenous in cells; host or cells: HEK293 (microsomal membrane fraction, solubilised in 0.25% CHAPSO)
Assay: in vitro assay of γ-secretase activity (HEK293 membrane fraction, recombinant APP substrate, Abeta ELISA)
Type: biochemical
Conditions: γ-secretase inhibition; HEK293 membrane fraction solubilized in 0.25% CHAPSO, recombinant human APP C-terminal 100 amino acids substrate, Abeta detected by ELISA
Please respond with reported IC50 for every item in the list.
One number for each entry, in nM.

These recorded examples may help you get a feel for the data.
{"columns": ["Compound", "IC50 / nM"],
 "data": [
  ["C[C@H](OC(=O)NCCF)C(=O)N[C@@H]1C(=O)N(CCOCc2ccccc2)c2ccccc2-c2ccccc21 [Example 41]", 480],
  ["COC(=O)CN1C(=O)[C@@H](NC(=O)C(C)C(=O)NCC(F)(F)C(F)(F)F)c2ccccc2-c2ccccc21 (stereo partly drawn) [Example 1]", 10]
]}

Provide IC50 values for the following items, in order.
1. C[C@H](OC(=O)NCCC(F)(F)F)C(=O)N[C@@H]1C(=O)N(CCOCc2ccccc2)c2ccccc2-c2ccccc21 [Example 35]
2. CC(O)(C(=O)NCCC(F)(F)C(F)(F)F)C(=O)N[C@@H]1C(=O)N(CCO)c2ccccc2-c2ccccc21 (single isomer, unassigned; epimer b) [Example 62]
3. CCOCCN1C(=O)[C@@H](NC(=O)C(C)(C)C(=O)NCC(F)(F)C(F)(F)F)c2ccccc2-c2ccccc21 [Example 71]
4. CCOC(C(=O)NCC(F)(F)C(F)(F)F)C(=O)N[C@@H]1C(=O)N(CCO)c2ccccc2-c2ccccc21 (single isomer, unassigned; epimer a) [Example 18]

[22, 1, 6, 7]
